So I've got a bunch of compounds here, and I need their IC50 values.
- target_desc: OXA-405 β-lactamase (Serratia marcescens, UniProt A0A0F6P2I5)
- Construct: gene blaOXA-405
- Sequence (A0A0F6P2I5 23-261 limits assumed): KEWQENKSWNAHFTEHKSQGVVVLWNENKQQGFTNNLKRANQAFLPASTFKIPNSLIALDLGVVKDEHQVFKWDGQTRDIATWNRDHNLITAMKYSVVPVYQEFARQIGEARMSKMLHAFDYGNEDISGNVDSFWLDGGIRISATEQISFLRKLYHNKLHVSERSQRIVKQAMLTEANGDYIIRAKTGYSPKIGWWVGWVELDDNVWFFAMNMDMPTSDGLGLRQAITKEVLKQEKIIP
- protocol_text: IC50 with purified enzyme, […] benzylpenicillin as reporter substrate, […] min preincubation
- Type: biochemical

>  <mol>
C[C@]1(Cn2ccnn2)[C@H](C(=O)O)N2C(=O)C[C@H]2S1(=O)=O

>  <assay_metric>
IC50

>  <reading>
1.8 µM

$$$$

Now for another entry.
IC50 for O=C(O)[C@H]1/C(=C/CO)O[C@@H]2CC(=O)N21 ?
6 µM
